- measured_on: Progesterone Receptor (PR) (Homo sapiens)
- Construct: endogenous in cells
- Sequence (P06401 1-933): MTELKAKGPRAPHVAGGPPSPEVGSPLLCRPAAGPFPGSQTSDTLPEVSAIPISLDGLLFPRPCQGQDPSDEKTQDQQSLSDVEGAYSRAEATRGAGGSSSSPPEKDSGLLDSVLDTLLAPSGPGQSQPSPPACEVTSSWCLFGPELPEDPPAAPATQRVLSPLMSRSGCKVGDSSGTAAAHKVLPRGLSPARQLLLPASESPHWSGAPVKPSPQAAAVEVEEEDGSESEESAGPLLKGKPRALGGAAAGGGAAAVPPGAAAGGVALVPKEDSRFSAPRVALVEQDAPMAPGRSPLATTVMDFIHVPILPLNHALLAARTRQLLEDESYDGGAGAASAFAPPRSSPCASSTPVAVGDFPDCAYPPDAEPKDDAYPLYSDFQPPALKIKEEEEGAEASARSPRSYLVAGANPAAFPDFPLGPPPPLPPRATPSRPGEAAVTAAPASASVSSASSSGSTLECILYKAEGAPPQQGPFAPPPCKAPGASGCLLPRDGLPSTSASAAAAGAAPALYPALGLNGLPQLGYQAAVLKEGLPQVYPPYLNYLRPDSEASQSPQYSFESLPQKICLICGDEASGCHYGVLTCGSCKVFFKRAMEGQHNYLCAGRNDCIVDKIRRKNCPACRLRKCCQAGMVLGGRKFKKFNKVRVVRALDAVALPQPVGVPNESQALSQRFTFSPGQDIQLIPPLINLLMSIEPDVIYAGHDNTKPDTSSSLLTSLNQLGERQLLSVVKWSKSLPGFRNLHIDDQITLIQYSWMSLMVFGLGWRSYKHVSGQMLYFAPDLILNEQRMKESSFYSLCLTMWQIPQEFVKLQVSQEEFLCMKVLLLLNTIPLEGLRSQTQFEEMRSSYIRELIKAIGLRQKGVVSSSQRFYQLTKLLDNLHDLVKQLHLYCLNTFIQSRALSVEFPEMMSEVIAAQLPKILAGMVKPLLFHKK
- test_method_notes: In vitro functional assay for progesterone receptor (PR) antagonists: inhibition of progesterone-induced alkaline phosphatase expression in T47D cells
- condition_set: antagonist format, 5 nM progesterone, Ki calculated from IC50 with the Cheng-Prusoff equation
Entries and their log10(Ki)
reported_endpoint: log10(Ki) (log10 of the value in µM)

molecule | reported_endpoint | readout_value
Cc1c(-c2ccc(C#N)cc2)nn(C2CCOC2)c1C(=O)NC[C@H](C)O (single isomer, unassigned) [Example 78 Diast 2] | log10(Ki) | -1.31
CC(C)n1nc(-c2ccc(C#N)cc2)c(C2CC2)c1C(=O)N[C@@H]1CCN(C(=O)OC(C)(C)C)C1 | log10(Ki) | -2.10
CCNC(=O)c1c(C2CC(F)(F)C2)c(-c2ccc(C#N)cc2)nn1C(C)C | log10(Ki) | -0.82
CCNC(=O)c1c(C)c(-c2ccc(C#N)cc2)nn1C1CC1 | log10(Ki) | -1.02
CC(C)n1nc(-c2ccc(C#N)cc2)c(C2CC2)c1C(=O)NCC(C)(C)N | log10(Ki) | -0.63
CCc1c(-c2ccc(C#N)cc2)nn(C(C)C)c1C(=O)NC | log10(Ki) | -1.59
CC[C@H](C)NC(=O)c1c(C2CC2)c(-c2ccc(C#N)cc2)nn1C(C)C | log10(Ki) | -2.15
CCNC(=O)c1c(Cc2ccccc2)c(-c2ccc(C#N)cc2)nn1C(C)C | log10(Ki) | -0.40

###

- measured_on: Progesterone Receptor (PR) (Homo sapiens)
- Construct: endogenous in cells; host or cells: T47D human breast mammary carcinoma cells
- test_method_notes: In vitro functional assay for progesterone receptor (PR) antagonists: inhibition of progesterone-induced alkaline phosphatase expression in T47D cells
- Format: cell-based
- condition_set: antagonist format, 5 nM progesterone, Ki calculated from IC50 with the Cheng-Prusoff equation
Rule for this label: MET means Ki is less than 10 nM; NOT MET means Ki is at least 10 nM.

compound | class_label
CC(NC(=O)c1c(C2CC2)c(-c2ccc(C#N)cc2)nn1C(C)C)c1cnn(C)c1 (racemic) [Example 39] | NOT MET
CC(C)n1nc(-c2ccc(C#N)cc2)c(C2CC2)c1C(=O)N[C@@H]1CCN(S(C)(=O)=O)C1 [Example 13] | NOT MET
CNC(=O)c1c(C#N)c(-c2ccc(C#N)c(C)c2)nn1C(C)C [Example 122] | MET
CC(C)n1nc(-c2ccc(C#N)cc2)c(C2CC2)c1C(=O)NCC1CC1 [Example 49] | MET
CC(C)C(=O)N1CC[C@H](NC(=O)c2c(C3CC3)c(-c3ccc(C#N)cc3)nn2C(C)C)C1 [Example 14] | NOT MET
CC(C)n1nc(-c2ccc(C#N)cc2)c(Cc2ccccc2)c1C(=O)NC1CC1 [Example 96] | NOT MET
Cc1c(-c2ccc(C#N)cc2)nn(C2CC2)c1C(=O)NC1CC1 [Example 84] | NOT MET
Cc1cc(-c2nn(C(C)C)c(C(=O)NC3CC3)c2C#N)ccc1C#N [Example 121] | MET
CNC(=O)CNC(=O)c1c(C)c(-c2ccc(C#N)c(C)c2)nn1C(C)C [Example 113] | NOT MET
CC(C)n1nc(-c2ccc(C#N)cc2)c(C2CC2)c1C(=O)NC[C@@H]1CCCO1 [Example 55] | NOT MET
COC(=O)C(C)(C)NC(=O)c1c(C2CC2)c(-c2ccc(C#N)cc2)nn1C(C)C [Example 27] | NOT MET
CCC(=O)N1CCC(NC(=O)c2c(C3CC3)c(-c3ccc(C#N)cc3)nn2C(C)C)C1 (stereo in doubt) [Example 12] | NOT MET
Cc1c(-c2ccc(C#N)cc2)nn(C2CC2)c1C(=O)NC[C@H](C)O [Example 86] | NOT MET
Cc1c(-c2ccc(C#N)cc2)nn(C2CCOC2)c1C(=O)NC[C@@H](C)O (single isomer, unassigned) [Example 79 Diast 2] | NOT MET
CC(C)n1nc(-c2ccc(C#N)cc2)c(C2CC2)c1C(=O)NC[C@H](C)O [Example 2] | MET
CNC(=O)c1c(C2CC(F)(F)C2)c(-c2ccc(C#N)cc2)nn1C(C)C [Example 99] | NOT MET
CCc1c(-c2ccc(C#N)cc2)nn(C(C)CC)c1C(=O)NC (racemic) [Example 105] | NOT MET

###

- measured_on: Progesterone Receptor (PR) (Homo sapiens, UniProt P06401)
- Construct: endogenous in cells
- test_method_notes: In vitro functional assay for progesterone receptor (PR) antagonists: inhibition of progesterone-induced alkaline phosphatase expression in T47D cells
- condition_set: antagonist format, 5 nM progesterone, Ki calculated from IC50 with the Cheng-Prusoff equation
Counter-ions that a name gives are not always drawn.
Entries and their Ki

molecule | reading_qualifier | Ki [µM]
Cc1c(-c2ccc(C#N)cc2)nn(C2CC2)c1C(=O)NC[C@@H](C)O | > | 0.191
CCC(=O)N1CC(NC(=O)c2c(C3CC3)c(-c3ccc(C#N)cc3)nn2C(C)C)C1 | = | 0.0422
Cc1c(-c2ccc(C#N)cc2)nn(C2CC2)c1C(=O)NC(C)C | = | 0.139
CCNC(=O)CNC(=O)c1c(C2CC2)c(-c2ccc(C#N)cc2)nn1C(C)C | = | 0.0273
CC(C)n1nc(-c2ccc(C#N)cc2)c(C2CC2)c1C(=O)N[C@@H]1CCNC1 [Example 8, hydrochloride] | = | 0.162
CC(C)n1nc(-c2ccc(C#N)cc2)c(C2CC2)c1C(=O)N[C@H]1CCNC1 [Example 9, hydrochloride] | = | 0.836
Cc1c(-c2ccc(C#N)cc2)nn(C2CCOC2)c1C(=O)NCC(C)(C)O (racemic) [Example 80] | = | 0.138
CC(C)n1nc(-c2ccc(C#N)cc2)c(C#N)c1C(=O)NC1CC1 | = | 0.0106
CCNC(=O)c1c(C)c(-c2ccc(C#N)cc2)nn1C1CCOC1 (racemic) [Example 76] | = | 0.0269
CC(C)n1nc(-c2ccc(C#N)cc2)c(C2CC2)c1C(=O)N(C)CC1CC1 | = | 0.00465
Cc1cc(-c2nn(C(C)C)c(C(=O)NC[C@@H](C)O)c2C#N)ccc1C#N | = | 0.0119
Cc1cc(-c2nn(C(C)C)c(C(=O)NC[C@H](C)O)c2C#N)ccc1C#N | = | 0.00593
CCc1c(-c2ccc(C#N)cc2)nn(C(C)CC)c1C(=O)NC[C@H](C)O (some centres unmarked) | = | 0.0914
Cc1c(-c2ccc(C#N)cc2)nn(C2CCC2)c1C(=O)NC[C@@H](C)O | = | 0.0291
CCc1c(-c2ccc(C#N)cc2)nn(C(C)CC)c1C(=O)NC[C@@H](C)O (mixture of isomers) | = | 0.063
Cc1cc(-c2nn(C(C)C)c(C(=O)NC[C@@H](C)O)c2C)ccc1C#N | = | 0.0109
CCc1c(-c2ccc(C#N)cc2)nn(C(C)CC)c1C(=O)NCC(C)(C)O (centres unmarked) [Example 130] | = | 0.0148
